Reported protein stability index by item:
# assay.name: protein stability index of a GFP-peptide fusion (yeast GPS) (PSI 1-4); higher = more stable; sorted into four equal gates, so the index is relative within each strain
# condition.parameters: san1∆
// no unit string in output, number only

These solved cases illustrate the format of a correct answer.
DYLKNIIVENSGTSGDE [RPN2]	3.14
LPTDGGLTSRLQRQQRK [POP4]	3.13
DGDASKPAFSFGAKSDE [YJL041W/NSP1]	3.15
KASLLLHVLVAHKLKKS [FAS2]	1.12

**Query** For the sequence TIKVVKRSMDAEQLGHA [RPP1] , what protein stability index is on record?
**Result** 3.41

**Query** Another sequence to look at: NIAFDAHMSIGCLHKGK [YML031W/NDC1]
**Result** 1.55

---

# assay.name: protein stability index of a GFP-peptide fusion (yeast GPS) (PSI 1-4); higher = more stable; sorted into four equal gates, so the index is relative within each strain
# condition.parameters: san1∆
Reported protein stability index by item:
// no unit string in output, number only

These solved cases illustrate the format of a correct answer.
DLKKKLNSLKDERSQGE [SMC4]	3.06
ELLEYSDDIAENDNLDN [YCG1]	3.21
GVPDDKWEQTYKKPTGG [FAS1]	3.2
VSHHATTFTHCEIHPSM [RPB2]	2.46
TQLQRGGTSDMNYLLDN [CSI1]	3.2

**Query** For the sequence LARQVKLLLLNTSAIQE [YIL149C/MLP2] , what protein stability index is on record?
**Result** 1.56

**Query** Another sequence to look at: RTLWPEFIPPDPTKVTE [SSN8]
**Result** 2.78

**Query** Another sequence to look at: TKVLQFAAKQRQELQMQ [SNF2]
**Result** 2.51

**Query** Another sequence to look at: SGKSNFFAAIRFVLSDD [SMC3]
**Result** 3.38

**Query** Another sequence to look at: KLLQLFLTPMDSIDLAP [YML103C/NUP188]
**Result** 1.76

**Query** Another sequence to look at: QSAIRPAGQATQKRTHV [RPL4A]
**Result** 2.72

**Query** Another sequence to look at: KDDRFVPVRKFKGNNGV [RPN2]
**Result** 2.94

**Query** Another sequence to look at: MIIDEGHRMKNAQSKLS [SNF2]
**Result** 1.67

**Query** Another sequence to look at: LSALFTISSKPDILATD [YCS4]
**Result** 2.72

**Query** Another sequence to look at: RFRKLTSQEINDRLEAL [PRE8]
**Result** 2.52

**Query** Another sequence to look at: VNDVELAFKKNEMLLKR [MTW1]
**Result** 3.4

**Query** Another sequence to look at: SFNIPRLTFKPWVVYLQ [YMR129W/POM152]
**Result** 1.09

**Query** Another sequence to look at: VPKLESSRTKFWSFLDS [YJL039C/NUP192]
**Result** 1.61

---

# assay.name: protein stability index of a GFP-peptide fusion (yeast GPS) (PSI 1-4); higher = more stable; sorted into four equal gates, so the index is relative within each strain
# condition.parameters: san1∆
recorded.metric: protein stability index
// no unit string in output, number only

DSLKLNSKPVELKPVSL [YJL041W/NSP1]	2.49
DAKKARFWSFMKTQRFV [SIR4]	2.67
ADEQKRSTDVWYEASTW [ARP7]	2.78
HPTIYESLPQYVDFVPM [POP4]	1.81
WAGKRLWDQDIAIAGTG [COR1]	2.56

**Query** For the sequence KQGRIKNATEELLRLAN [CSN12] , what protein stability index is on record?
**Result** 2.6

**Query** Another sequence to look at: MPYTINELLEMVGLASG [BRR2]
**Result** 2.58

**Query** Another sequence to look at: NSIDVPIRINSTEEIEY [YMR129W/POM152]
**Result** 2.01

**Query** Another sequence to look at: SAKTRSHNWAAKAKRRH [RPL37B]
**Result** 3.31

**Query** Another sequence to look at: NKLGALKTNFETEWNLQ [RPB11]
**Result** 3.22

**Query** Another sequence to look at: GIQEVVHNTNSFIISSL [NUT1]
**Result** 2.04

**Query** Another sequence to look at: HVLNKVTLASILTTAVG [RPN1]
**Result** 1.46

**Query** Another sequence to look at: YQKLFSQFINDHILFTK [SRB8]
**Result** 2.04

**Query** Another sequence to look at: QLDFTEFDEQYGTRPLV [SNF2]
**Result** 3.21

**Query** Another sequence to look at: MSTDVAAAQAQSKIDLT [SEM1]
**Result** 2.98

**Query** Another sequence to look at: QKETQKVTKIWSKESNY [PRP28]
**Result** 2.3

**Query** Another sequence to look at: LRELSCCINAAFLALVD [RRP46]
**Result** 2.88

**Query** Another sequence to look at: VKLTYNSPSSALRALQE [YDL088C/ASM4]
**Result** 2.62

**Query** Another sequence to look at: IKKIVADLKKGKDLSPA [QCR2]
**Result** 3.11

**Query** Another sequence to look at: IAATQDFITGSYLISHK [RPO31]
**Result** 2.83

**Query** Another sequence to look at: RNDKTLELMDSKKTGQF [POP1]
**Result** 3.18

**Query** Another sequence to look at: DTDSKPSSQSQNDTPMF [YLR018C/POM34]
**Result** 3

**Query** Another sequence to look at: GHSQFTSHYQNYHPNAS [RPN4]
**Result** 2.15

**Query** Another sequence to look at: LLIEFPYLPKHYLVLLV [YJR042W/NUP85]
**Result** 2.07

**Query** Another sequence to look at: QEMIDILETIFRGARKN [DIB1]
**Result** 2.77

**Query** Another sequence to look at: EQLSKQRDLYKRKEELV [SMC2]
**Result** 2.67

**Query** Another sequence to look at: SFTNYITRSFKEPRLVI [RPS0A]
**Result** 2.55

Reference source: the supplement of paper PMC9732359
